Value source: the supplement of paper PMC9732359

Assay: protein stability index of a GFP-peptide fusion (yeast GPS) (PSI 1-4); higher = more stable; sorted into four equal gates, so the index is relative within each strain
Conditions: san1∆
protein stability index below 3 gives not met; protein stability index at or above it gives met.

Could you tell me if the measured protein stability index of VSKVQKRKVLELKKKRK [SRP72] reaches 3 or more? not met

Item: KEENDEGLSAQIAFDLV [RPN2] met

Item: IQELEDQRDELLEQKKS [ITC1] met

Item: ARRLKNRAARDRRAQRV [RPL19A] not met

Item: FIVVPDLLKNAPLFKKN [SMD3] not met

Item: EISISFDVNNIDMHLIY [YDL116W/NUP84] not met

Item: GKLWKDVKARIAAGDGD [QCR9] not met

Item: ESYKPSVQLPDMAKLKK [SWI3] not met

Item: DVNDVLTKYIRSKNLIF [GRR1] not met

Item: SIGEPGTQMTLKTFHFA [RPO31] not met

Item: LAYRNYWTQYLGLFIHK [YJL039C/NUP192] not met

Item: GIFLHGKIPTLKISLIQ [PRP8] not met

Item: KIAVLNNDKREIQEELE [SMC1] met

Item: QVLMDINTLNGGSSDTA [GAL11] met

Item: YSKIKHLGLDDPQDVFN [SIR2] met

Item: RNVTKGDIVRMLETAGF [SMC3] not met

Item: IYDSEDPQQVFDERIKF [RPN3] met

Item: SFSDENSDDFFMDNSYD [ESC2] not met

Item: VFKATSSTDEESWFKAL [FAS1] not met

Item: IGFITSGTYHLNCGNGM [POP1] not met

Item: KQRFQGCNNLIKNISNR [ARP9] met

###

Test: protein stability index of a GFP-peptide fusion (yeast GPS) (PSI 1-4); higher = more stable; sorted into four equal gates, so the index is relative within each strain
Conditions: pdr5∆
result type: protein stability index
The answer should be written as a number, with no unit following it.

Data request, read-out protein stability index, for REIESLIAEETNNKKLL [SMC3] 2.86

Item: VNTMGTGGQTIDNGTGR [MED6] 3.06

Item: NALYDTLLESNLCKIIE [RPN6] 2.48

Item: EGQLKPGDGSSYINVTF [RPC25] 3.12

Item: PSYTHVLISKLSCEKIT [RRI1] 1.99

Item: IALEGYRLDIIESALKS [RPN2] 1.49

Item: YELYINKLTILGRDYPI [IRR1] 1.57

Item: QFPEIAYPGKLICPQYG [CSL4] 2.11

Item: LKPVDKLKPMNIERKQT [SIN4] 3.05

Item: STNSNSKPSTASPSAHT [RPN4] 3.01

###

Assay: protein stability index of a GFP-peptide fusion (yeast GPS) (PSI 1-4); higher = more stable; sorted into four equal gates, so the index is relative within each strain
Settings: doa10∆
result type: protein stability index

Data request, read-out protein stability index, for EDRNESVNIAFAISMGY [ECM29] 3.02

Item: KEENDEGLSAQIAFDLV [RPN2] 3.4

Item: MGKSAVIFVERATPATL [SRB2] 2.36

Item: ILSQQFDKIIKIREDHI [SRB8] 2.62

Item: KKASKVTVDADIDDILK [ISW2] 2.75

Item: LEAKRKVSSAEYYAKKR [RPL16A] 3.06

Item: AVEQRKKEKLDSGEVDA [DPB4] 3.2

Item: YRNFMVNSYRLNPNEYF [SWI3] 1.69

Item: NILNMSMNNDFQQQQQQ [PGD1] 2.68

Item: QINPTRETNDDIWRVAG [SNF2] 2.6

Item: QVIKNEVCAKMPNIELY [SSN2] 2.83

Item: HICGICGLMTVIAKLNH [RPB2] 1.65

Item: SGQTFAYGVLDSNYKWD [PRE2] 2.39

Item: EDEEEFSIFNYFKMFPA [RPC34] 3.27

Item: EYLKRVSVPVSGQKTNR [SIR3] 2.54
